Target: T1, human PRLR on cells (human, UniProt P16471 25-622)
T1 sequence: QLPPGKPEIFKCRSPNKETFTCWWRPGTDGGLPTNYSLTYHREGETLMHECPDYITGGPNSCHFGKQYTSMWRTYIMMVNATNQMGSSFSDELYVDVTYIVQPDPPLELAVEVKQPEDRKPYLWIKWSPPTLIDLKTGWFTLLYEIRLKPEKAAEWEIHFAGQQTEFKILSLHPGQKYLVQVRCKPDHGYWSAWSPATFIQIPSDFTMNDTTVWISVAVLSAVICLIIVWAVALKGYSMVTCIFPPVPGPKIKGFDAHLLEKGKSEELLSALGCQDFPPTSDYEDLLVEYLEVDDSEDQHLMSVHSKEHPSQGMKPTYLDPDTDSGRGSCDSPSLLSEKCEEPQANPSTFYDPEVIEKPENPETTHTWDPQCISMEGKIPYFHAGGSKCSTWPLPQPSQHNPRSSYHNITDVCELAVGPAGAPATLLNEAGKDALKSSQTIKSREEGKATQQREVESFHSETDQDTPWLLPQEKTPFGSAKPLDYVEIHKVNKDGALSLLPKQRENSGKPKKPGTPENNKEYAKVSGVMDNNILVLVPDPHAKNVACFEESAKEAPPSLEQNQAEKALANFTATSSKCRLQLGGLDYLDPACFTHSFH
Test: cell-based or functional assay
metric: Baf3-hPRLR proliferation IC50 (µg/mL)
Give the quantity in µg/mL, number only.

// solved cases for Baf3-hPRLR proliferation IC50 follow
binder	Baf3-hPRLR proliferation IC50, µg/mL
Ab15 (antibody, human IgG1, kappa, V domains shown, humanized from Ab6; G1; also called Ab1 HC.1 and Ab1 LC.1a) VH: EVQLVQSGAEVKKPGSSVKVSCKASGYTFTTYWMHWVRQAPGQGLEWMGEIDPSDSYSNYNQKFKDRVTITADKSTSTAYMELSSLRSEDTAVYYCARNGGLGPAWFSYWGQGTLVTVSS VL: DIQMTQSPSSVSASVGDRVTITCKASQYVGTAVAWYQQKPGKSPKLLIYSASNRYTGVPSRFSDSGSGTDFTLTISSLQPEDFATYFCQQYSSYPWTFGGGTKVEIKR	0.13
Ab6 (antibody, V domains shown, murine monoclonal, isotype G1; also called murine Ab6) VH: QVQLQQPGAELVMPGSSVKLSCKASGYTFTTYWMHWVKQRPGQGLEWIGEIDPSDSYSNYNQKFKDKATLTVDKSSSTAYMQLSSLTSEDSAVYYCARNGGLGPAWFSYWGQGTLVTVSA VL: DIVMTQSQKFMSTTVGDRVSITCKASQYVGTAVAWYQQKPGQSPKLLIYSASNRYTGVPDRFTDSGSGTDFTLTISNLQSEDLADYFCQQYSSYPWTFGGGTKLEIK	0.26

Kindly review the next binder as well.
binder chAb6 (antibody, human IgG1, kappa, V domains shown, chimeric, murine variable and human G1/kappa constant regions) VH: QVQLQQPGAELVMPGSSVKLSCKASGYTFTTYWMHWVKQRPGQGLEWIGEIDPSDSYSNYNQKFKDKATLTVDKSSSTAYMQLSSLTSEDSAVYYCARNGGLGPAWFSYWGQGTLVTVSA VL: DIVMTQSQKFMSTTVGDRVSITCKASQYVGTAVAWYQQKPGQSPKLLIYSASNRYTGVPDRFTDSGSGTDFTLTISNLQSEDLADYFCQQYSSYPWTFGGGTKLEIKT , Baf3-hPRLR proliferation IC50 observed: 0.28
